All figures here come from paper PMC9926475.

experiment: Pharmacokinetic studies in plasma and brain of mice after i.p. injection; format: in vivo, mouse; conditions: female mice, i.p. 5 mg/kg
recorded metric: t1/2 Plasma (terminal half-life)
Numeric answer plus unit only.

[Q] Item `N[C@@]1(c2ccccc2Cl)CC[C@@H](O)CC1=O` has what recorded t1/2 Plasma (terminal half-life)?
[A] 31 min

[Q] Give the measured t1/2 Plasma (terminal half-life) of `N[C@]1(c2ccccc2Cl)CC[C@H](O)CC1=O` .
[A] 34 min

[Q] Field request: t1/2 Plasma (terminal half-life) | item: `N[C@]1(c2ccccc2Cl)C[C@H](O)CCC1=O`
[A] 47 min

[Q] Which t1/2 Plasma (terminal half-life) reading was recorded for the molecule `N[C@@]1(c2ccccc2Cl)CC[C@H](O)CC1=O` ?
[A] 29 min

[Q] Entry under review: N[C@@]1(c2ccccc2Cl)CCC[C@@H](O)C1=O [(2R,6R)-HNK, (2R,6R)-hydroxynorketamine] . Reported t1/2 Plasma (terminal half-life)?
[A] 36 min

[Q] Report t1/2 Plasma (terminal half-life) for `N[C@@]1(c2ccccc2Cl)CCC[C@H](O)C1=O` please.
[A] 47 min

[Q] Which measured t1/2 Plasma (terminal half-life) value corresponds to `N[C@@]1(c2ccccc2Cl)C[C@@H](O)CCC1=O` ?
[A] 44 min

[Q] May I ask what t1/2 Plasma (terminal half-life) has been recorded for `N[C@]1(c2ccccc2Cl)C[C@@H](O)CCC1=O` ?
[A] 42 min

[Q] Which t1/2 Plasma (terminal half-life) value belongs to `N[C@@]1(c2ccccc2Cl)C[C@H](O)CCC1=O` ?
[A] 29 min

[Q] Fill blank: measured t1/2 Plasma (terminal half-life) of the molecule `N[C@]1(c2ccccc2Cl)CC[C@@H](O)CC1=O` is ____.
[A] 28 min

[Q] Looking for the measured t1/2 Plasma (terminal half-life) of C[C@@H]1CC[C@@](N)(c2ccccc2Cl)C(=O)[C@@H]1O [(5R)-methyl-(2R,6R)-HNK, (5R)-methyl-(2R,6R)-hydroxynorketamine] , can you help?
[A] 49 min

[Q] Report t1/2 Plasma (terminal half-life) for N[C@]1(c2ccccc2Cl)CCC[C@H](O)C1=O [(2S,6S)-HNK, (2S,6S)-hydroxynorketamine] please.
[A] 46 min

[Q] Quick one: t1/2 Plasma (terminal half-life) of `N[C@]1(c2ccccc2Cl)CCC[C@@H](O)C1=O` ?
[A] 47 min

----------
experiment: Pharmacokinetic studies in plasma and brain of mice after i.p. injection; format: in vivo, mouse; conditions: standard t-test; F female, M male, NS not statistically different
recorded metric: Sex-dependent difference: Brain Total exposure (AUC)

> print(dat)
                                   molecule  result
1        N[C@]1(c2ccccc2Cl)C[C@@H](O)CCC1=O   F > M
2        N[C@@]1(c2ccccc2Cl)CC[C@H](O)CC1=O   F > M
3        N[C@@]1(c2ccccc2Cl)CCC[C@H](O)C1=O   M > F
4       N[C@@]1(c2ccccc2Cl)C[C@@H](O)CCC1=O   M > F
5  C[C@@H]1CC[C@@](N)(c2ccccc2Cl)C(=O)[C@@H]1O [(5R)-methyl-(2R,6R)-HNK, (5R)-methyl-(2R,6R)-hydroxynorketamine]   M > F
6  N[C@]1(c2ccccc2Cl)CCC[C@H](O)C1=O [(2S,6S)-HNK, (2S,6S)-hydroxynorketamine]   F > M

[Q] Report Sex-dependent difference: Brain Total exposure (AUC) for `N[C@]1(c2ccccc2Cl)CC[C@@H](O)CC1=O` please.
[A] M > F

[Q] Name the recorded Sex-dependent difference: Brain Total exposure (AUC) for `N[C@]1(c2ccccc2Cl)CCC[C@@H](O)C1=O` .
[A] F > M

[Q] Look at this molecule and give its reported Sex-dependent difference: Brain Total exposure (AUC). `N[C@@]1(c2ccccc2Cl)C[C@H](O)CCC1=O`
[A] M > F

[Q] # get_value(readout='Sex-dependent difference: Brain Total exposure (AUC)', item= N[C@@]1(c2ccccc2Cl)CCC[C@@H](O)C1=O [(2R,6R)-HNK, (2R,6R)-hydroxynorketamine] )
[A] F > M
